Target: ZFP SBS#1324 (synthetic)
Sequence (chain, as listed by the source): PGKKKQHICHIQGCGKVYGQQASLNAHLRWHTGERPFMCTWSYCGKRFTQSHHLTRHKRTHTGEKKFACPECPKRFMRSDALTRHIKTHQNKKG
Experiment: EMSA
Details: tags: MBP fusion

# binder, readout.unit, Kd
data = [
    ("GTGGGAATA (dsDNA) DNA 1: GTGGGAATA DNA 2: TATTCCCAC", "nM", 18.5),
]
